TGI reference
# Tested on: UACC-257 melanoma
# method.description: NCI tumour cell line growth inhibition, 48 h

Solved entries (count: 7):
[[record]]
molecule = "Cc1ccc(NC(=O)C2C(=O)N(c3ccc(C)c(C)c3)C(=O)C2N=N)cc1C (stereo not drawn)"
obs_value = "> 100 µM"

[[record]]
molecule = "CCOC(=O)c1ccc(NC(=O)O/N=C(/Cl)CCl)cc1"
obs_value = "> 100 µM"

[[record]]
molecule = "C=CC(=O)N1CCC(C2CCNc3c(C(N)=O)c(-c4ccc(Oc5ccccc5)cc4)nn32)CC1 (stereo not drawn)"
obs_value = "51.2 µM"

[[record]]
molecule = "COc1cccc2c1C(=O)c1c(O)c3c(c(O)c1C2=O)CC(O)(/C(C)=N/NC(=O)CCC(=O)N/N=C(\\C)C1(O)Cc2c(O)c4c(c(O)c2C(OC2CC(N)C(O)C(C)O2)C1)C(=O)c1c(OC)cccc1C4=O)CC3OC1CC(N)C(O)C(C)O1 (stereo not drawn)"
obs_value = "3.28 µM"

[[record]]
molecule = "O=C(Nc1cc(Cl)ccc1Cl)c1cc2cccc(Cl)c2oc1=O"
obs_value = "> 100 µM"

[[record]]
molecule = "COC(=O)[C@]1(C)CCCC2(C)C1CC[C@H]1C=C(C)[C@H]3CCC12C3 (stereo partly drawn)"
obs_value = "> 100 µM"

[[record]]
molecule = "CCN(CC)CCOc1ccc(/C=C2\\CC3C4CC=C5C[C@@H](O)CC[C@]5(C)C4CC[C@]3(C)C2=O)cc1OC (stereo partly drawn)"
obs_value = "5.5 µM"


In: Would you mind telling me what TGI value was observed for Oc1cc(O)c2c(c1)OC(c1ccc(O)c(O)c1)C(OC1(c3cc(O)c(O)c(O)c3)Oc3cc(O)cc(O)c3C(O)C1O)C2 (stereo not drawn) ?
Out: > 100 µM

====

# Test system: ACHN renal
# method.description: NCI tumour cell line growth inhibition, 48 h; in the data active = GI50 below about 0.43 µM; inactive = the rest
Outcome (select one): active, inactive

Answered examples (2):
[[record]]
molecule = "Nc1c(C(=O)Nc2cccc(Br)c2)sc2nc3c(cc12)C(=O)CCC3"
target_system = "ACHN renal"
class_assignment = "inactive"

[[record]]
molecule = "Cc1nc2cnc(N)c(C#Cc3cncc(C(=O)Nc4ccc(CN5CCN(C)CC5)c(C(F)(F)F)c4)c3)c2nc1C"
target_system = "ACHN renal"
class_assignment = "inactive"


In: What outcome does the record of this test show for O=c1[nH]c(=O)n(C2CC(O)C(CO)O2)cc1CO (stereo not drawn) ?
Out: inactive

In: Then C=CCCCCCCCCCCC1(O)C=CC2=[N+](CCCCCN=C(N)N)CCCN21 (stereo not drawn) ?
Out: inactive

In: // same read-out, input: COc1ccccc1N1CCN(CCCn2c(=O)c3c(OC)nc(C)cc3c(=O)n2-c2ccccc2)CC1
Out: inactive

In: And COc1cccc2c1C(=O)c1c(O)c3c(c(O)c1C2=O)CC(O)(/C(C)=N/NC(=O)CCC(=O)N/N=C(\C)C1(O)Cc2c(O)c4c(c(O)c2C(OC2CC(N)C(O)C(C)O2)C1)C(=O)c1c(OC)cccc1C4=O)CC3OC1CC(N)C(O)C(C)O1 (stereo not drawn) ?
Out: active

In: Try this molecule next: CS(=O)(=O)CCCn1c(=O)c(Oc2ccc(F)cc2F)cc2cnc(NC3CCOCC3)nc21
Out: inactive

In: Now give it for C=CCc1cccc(/C=N/NC(=O)CN2CCN(Cc3ccccc3)CC2)c1O too.
Out: inactive

In: Request: N#C/C=C(\c1ccc([N+](=O)[O-])cc1)n1nnc2cc(Cl)c(Cl)cc21
Out: inactive

In: # repeat for CCCn1c(N)c(C(=O)N/N=C(/C)c2cc3cccc(OC)c3o2)sc1=S
Out: inactive

In: Next molecule up: Cc1ccc(Cl)cc1Nc1nc(C(F)(F)F)ccc1C(=O)N1CCN(c2cccc(Cl)c2)CC1
Out: inactive

In: Now the molecule Nc1nccc2c1ccn2-c1ccc(NC(=O)c2ccc(N3CCOCC3)c(C(F)(F)F)c2)cc1
Out: inactive

In: Please answer likewise for C=CC(=O)N1CCC(C2CCNc3c(C(N)=O)c(-c4ccc(Oc5ccccc5)cc4)nn32)CC1 (stereo not drawn)
Out: inactive

====

# Test system: MCF7 breast
# method.description: NCI tumour cell line growth inhibition, 48 h
# cutoff 40 µM applies to TGI; >= gives 1 (yes), < gives 0 (no)

Take a look at these entries with their results.
[[record]]
compound = "CC(C)(C)NC(=O)N1N=C(c2ccccc2)C1c1ccccc1 (centres undefined)"
target_system = "MCF7 breast"
class_assignment = "1 (yes)"

[[record]]
compound = "CN1C(=O)C(CC=O)(C(C)(C)C)c2ccccc21 (centres undefined)"
target_system = "MCF7 breast"
class_assignment = "1 (yes)"

[[record]]
compound = "Nc1nccc2c1ccn2-c1ccc(NC(=O)c2ccc(N3CCOCC3)c(C(F)(F)F)c2)cc1"
target_system = "MCF7 breast"
class_assignment = "0 (no)"

[[record]]
compound = "CC(C)(C)c1cc(C(=O)/C=C/C=C/c2ccccc2)cc(C(C)(C)C)c1O"
target_system = "MCF7 breast"
class_assignment = "1 (yes)"


In: Dear colleague, could you confirm whether N#C/C=C(\c1ccc([N+](=O)[O-])cc1)n1nnc2cc(Cl)c(Cl)cc21 has TGI at or above 40 µM?
Out: 0 (no)

In: Likewise for CCOc1ccc2nc(S/C(=C/C=C(C#N)C#N)c3ccc(C)cc3)sc2c1 ?
Out: 1 (yes)

In: Next compound: CCCn1c(N)c(C(=O)N/N=C(/C)c2cc3cccc(OC)c3o2)sc1=S
Out: 1 (yes)

In: Moving on to the next compound: C=CCc1cccc(/C=N/NC(=O)CN2CCN(Cc3ccccc3)CC2)c1O
Out: 0 (no)

In: Follow-up entry: COc1cc(CNCCCN2C(=O)c3ccc4c5c(ccc(c35)C2=O)C(=O)N(CCCNCc2cc(OC)c(OC)c(OC)c2)C4=O)cc(OC)c1OC
Out: 0 (no)

In: Ok, now COc1cc(-c2nn(-c3cccc(NC(=O)Nc4ccc(Cl)c(Cl)c4)c3)cc2-c2ccncc2)ccc1Cl
Out: 1 (yes)

In: Continue with Cc1[nH]c2ccccc2c1-c1cc(-c2cc(-c3c(C)[nH]c4ccccc34)on2)no1
Out: 1 (yes)

====

# System: HOP-92 NSCLC
# method.description: NCI tumour cell line growth inhibition, 48 h
value.type: GI50

Some solved entries appear below for comparison.
[[record]]
compound = "N#C/C=C(\\c1ccc([N+](=O)[O-])cc1)n1nnc2cc(Cl)c(Cl)cc21"
obs_value = "1.78 µM"

[[record]]
compound = "CC(C)=CCc1cc(O)cc2c1OC(C=C(C)C)C1=C2C(=O)C2=C(NCCS2(=O)=O)C1=O (centres undefined)"
obs_value = "5.73 µM"


In: Form field: reported GI50 of O=c1[nH]c(=O)n(C2CC(O)C(CO)O2)cc1CO (centres undefined)
Out: 43.3 µM

In: // next record COc1cc(CNCCCN2C(=O)c3ccc4c5c(ccc(c35)C2=O)C(=O)N(CCCNCc2cc(OC)c(OC)c(OC)c2)C4=O)cc(OC)c1OC
Out: 1.02 µM

====

# Tested on: MDA-MB-435
# method.description: NCI tumour cell line growth inhibition, 48 h
value.type: TGI

Past entries and their recorded results:
[[record]]
compound = "Cc1ccc(Cl)cc1Nc1nc(C(F)(F)F)ccc1C(=O)N1CCN(c2cccc(Cl)c2)CC1"
obs_value = "> 100 µM"

[[record]]
compound = "CN1C(=O)C(CC=O)(C(C)(C)C)c2ccccc21 (stereo not given)"
obs_value = "> 100 µM"

[[record]]
compound = "Cc1nc2ccccc2nc1-c1ccc(N=[N+]([O-])c2ccc(-c3nc4ccccc4nc3C)cc2)cc1"
obs_value = "> 100 µM"

[[record]]
compound = "Nc1nc(N)c(N=Nc2ccc([As](=O)(O)O)cc2)c(=O)[nH]1"
obs_value = "> 100 µM"


In: What TGI value was documented for this compound, CS(=O)(=O)CCCn1c(=O)c(Oc2ccc(F)cc2F)cc2cnc(NC3CCOCC3)nc21 ?
Out: > 25 µM

====

Catalogue of compounds with associated TGI
# Test system: MOLT-4 leukemia
# method.description: NCI tumour cell line growth inhibition, 48 h

[[record]]
compound = "O=[N+]([O-])c1ccc(-n2nnc(C3=NCCN3)c2-c2ccc(Cl)cc2)cc1"
obs_value = "> 100 µM"

[[record]]
compound = "CC(C)=C1C(=O)C[C@]2(C)C[C@H]3/C(=C(/C)CCC12)CC[C@@]3(C)O (stereo partly drawn)"
obs_value = "> 50 µM"


In: Data request, read-out TGI, for C[C@H]1NC(=O)C2CCCCN2C(=O)CN(C)C(=O)CNC(=O)C2CCCCN2C(=O)[C@@H](NC(=O)c2nc3ccccc3cc2O)[C@@H](C)NC(=O)C2CCCCN2C(=O)CN(C)C(=O)CNC(=O)[C@@H]2CCCCN2C(=O)C1NC(=O)c1nc2ccccc2cc1O (stereo partly drawn)
Out: 7.03 µM
